test-target: BCL6::BCOR (Homo sapiens, UniProt P41182, C67R/C84N/C8Q)
Construct: BCL6 (amino acids 5 to 129, with the following changes to the natural protein)
assay-method-text: BCL6::BCOR ULight TR-FRET assay
IC50 listing for selected compounds.
Express the result in nM but write the number alone.

> print(dat)
                                   compound  readout.value
1  CNC(=O)COc1cc2cc(Nc3nc(N4CCC(C(=O)O)CC4)ncc3Cl)ccc2n(C)c1=O              4
2  CNC(=O)COc1cc2cc(Nc3nc(N4C[C@H](CO)N[C@@H](C)C4)ncc3Cl)ccc2n(C)c1=O (single isomer, unassigned)             18
3  COCCN1CCN(c2ncc(Cl)c(Nc3ccc4c(c3)cc(OCC(=O)O)c(=O)n4C)n2)CC1C (stereo not shown)             17
4  CNC(=O)COc1cc2cc(Nc3nc(N4CCN(CC(=O)O)CC4)ncc3Cl)ccc2n(C)c1=O              8
5  CCn1c(=O)c(OCC(=O)NC)cc2cc(Nc3nc(N4C[C@H](C)C[C@H](C)C4)ncc3Cl)ccc21              5
6  C[C@@H]1C[C@H](C)CN(c2ncc(Cl)c(Nc3ccc4c(c3)cc(OCC(=O)NCCO)c(=O)n4C)n2)C1             16

For the next question, use this compound.
Exam item: Query: IC50; subject: CNC(=O)COc1cc2cc(Nc3nc(N4C[C@H](C)C[C@H](C)C4)ncc3Cl)cnc2n(C)c1=O
Marked response: 9

* * *

test-target: BCL6::BCOR (Homo sapiens, UniProt P41182, C67R/C84N/C8Q)
Construct: BCL6 (amino acids 5 to 129, with the following changes to the natural protein)
assay-method-text: BCL6::BCOR ULight TR-FRET assay
Description: Biological Methods BCL6::BCOR ULight TR-FRET Assay: Biotinylated BCL6 protein corresponding to BCL6 (amino acids 5 to 129, with the following changes to the natural protein: C8Q, C67R, C84N) is expressed in E. coli with a carboxy-terminal Avi tag (amino acid sequence […]). […] After 240 minutes incubation time the TR-FRET signal is measured in a PerkinElmer Envision HTS Multilabel Reader using the TR-FRET LANCE Ultra specs of PerkinElmer. […]
pIC50 listing for selected molecules.
Field pIC50 (float): negative decimal logarithm of the concentration in molar.

Look over these answered cases.
> print(dat)
                                   molecule  property.measured  readout.value
1  C[C@@H]1C[C@H](C)CN(c2ncc(Cl)c(Nc3ccc4c(c3)cc(OCC(=O)O)c(=O)n4C)n2)C1 [Compound I-131]              pIC50           8.30
2  CNC(=O)COc1cc2cc(Nc3nc(N4C[C@@H](C)N(C)[C@@H](C)C4)ncc3Cl)ccc2n(C)c1=O [Compound I-48]              pIC50           7.96
3  CNC(=O)COc1cc2cc(Nc3nc(N4CCC[C@H](C(=O)O)C4)ncc3Cl)cc(OC)c2n(C)c1=O [Compound I-96]              pIC50           8.70

Exam item: Hello, I am looking for reported pIC50 with BCL6::BCOR (Homo sapiens, UniProt P41182, C67R/C84N/C8Q) for CNC(=O)COc1cc2cc(Nc3nc(N4CCOC(C)(C)C4)ncc3Cl)ccc2n(C)c1=O [Compound I-50] . Could you help?
Marked response: 8.30

Exam item: Next record, please: C[C@@H]1C[C@H](C)CN(c2ncc(Cl)c(Nc3ccc4c(c3)cc(OCC(=O)OCCN3CCOCC3)c(=O)n4C)n2)C1 [Compound I-142]
Marked response: 8.30

Exam item: Next record, please: CNC(=O)COc1cc2cc(Nc3nc(N4CCC[C@@H](C(=O)N5CCN(C)CC5)C4)ncc3Cl)ccc2n(C)c1=O [Compound I-169]
Marked response: 8.22

Exam item: Next record, please: CNC(=O)COc1cc2cc(Nc3nc(N4CCN(C(=O)CN(C)C)CC4)ncc3Cl)ccc2n(C)c1=O [Compound I-18]
Marked response: 8.15

These data points were gathered from patent US11001570B2.
